Molecular target: Na^+/H^+-Exchanger (Oryctolagus cuniculus, UniProt P23791)
Construct: den Na^+-Influx in die Erythrocyten via Na^+/H^+-Austausch flammenphotometrisch bestimmen zu können
Sequence (P23791 whole entry): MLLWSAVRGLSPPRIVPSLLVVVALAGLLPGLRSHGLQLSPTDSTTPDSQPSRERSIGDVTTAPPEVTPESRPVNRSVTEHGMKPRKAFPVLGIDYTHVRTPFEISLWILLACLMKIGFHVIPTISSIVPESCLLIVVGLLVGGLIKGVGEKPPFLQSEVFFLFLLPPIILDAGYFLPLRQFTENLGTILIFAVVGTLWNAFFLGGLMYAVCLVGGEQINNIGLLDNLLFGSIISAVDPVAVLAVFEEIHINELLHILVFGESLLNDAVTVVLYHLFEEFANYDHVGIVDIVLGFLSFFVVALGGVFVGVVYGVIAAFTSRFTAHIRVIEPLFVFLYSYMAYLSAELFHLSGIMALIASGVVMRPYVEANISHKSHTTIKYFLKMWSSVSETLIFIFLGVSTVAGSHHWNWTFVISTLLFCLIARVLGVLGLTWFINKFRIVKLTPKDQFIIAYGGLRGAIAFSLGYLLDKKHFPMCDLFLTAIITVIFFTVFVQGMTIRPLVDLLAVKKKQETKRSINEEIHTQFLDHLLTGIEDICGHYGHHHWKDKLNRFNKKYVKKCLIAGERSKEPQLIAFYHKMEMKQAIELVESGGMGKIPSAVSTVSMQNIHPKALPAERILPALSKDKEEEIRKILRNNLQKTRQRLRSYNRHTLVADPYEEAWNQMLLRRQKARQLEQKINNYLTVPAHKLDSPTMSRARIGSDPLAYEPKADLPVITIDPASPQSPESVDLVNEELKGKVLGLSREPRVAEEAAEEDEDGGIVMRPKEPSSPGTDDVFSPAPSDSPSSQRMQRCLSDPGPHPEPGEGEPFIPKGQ
Assay: Inhibition of the Na+/H+ exchanger of rabbit erythrocytes (amiloride-sensitive Na+ influx, flame photometry)
Details: Kaninchenerythrocyten; hyperosmolar salt-sucrose medium, pH 7,4, 37°C
Listed next: entries and their corresponding pIC50.
Scale: pIC50 equals -log10([C]), with [C] in mol/L.

Solved cases (2 shown):
chem.smiles	pIC50
CC(C)c1ccc(C(=O)N=C(N)N)cc1C(O)(O)C(F)(F)F	6.52
NC(N)=NC(=O)c1ccc(F)c(C(O)(O)C(F)(F)F)c1	6.00

// query Please tell me: pIC50 of `NC(N)=NC(=O)c1ccc(C(O)(O)C(F)(F)F)cc1` , system Na^+/H^+-Exchanger (Oryctolagus cuniculus, UniProt P23791)?
// result 5.82
